Measured values drawn from ChEMBL document CHEMBL2021819 for this set.

SYSTEM: 1,4-dihydroxy-2-naphthoyl-CoA synthase (Mycobacterium tuberculosis)
Sequence (P9WNP5 whole entry): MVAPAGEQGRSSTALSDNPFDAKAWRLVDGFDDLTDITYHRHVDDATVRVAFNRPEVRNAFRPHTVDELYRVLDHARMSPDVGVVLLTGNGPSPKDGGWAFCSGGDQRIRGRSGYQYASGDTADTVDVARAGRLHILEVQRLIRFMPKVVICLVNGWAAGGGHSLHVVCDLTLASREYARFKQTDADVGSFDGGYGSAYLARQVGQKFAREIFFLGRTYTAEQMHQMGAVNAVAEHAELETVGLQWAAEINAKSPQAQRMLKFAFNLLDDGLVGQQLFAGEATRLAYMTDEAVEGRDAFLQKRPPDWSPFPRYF
ASSAY TEXT: Inhibition of Mycobacterium tuberculosis MenB expressed in Escherichia coli BL21 (DE3) assessed as formation of DHNA-CoA from OSB-CoA by enzyme coupled-assay in presence of Escherichia coli MenE
Listing of recorded IC50 by entry.

I have this compound here, C[C@H](NC(CC(=O)c1ccccc1)C(=O)O)c1ccccc1 (stereo partly drawn) , and I need its recorded IC50.
> 120 µM

Item C[C@H](NC(CC(=O)c1ccc(Cl)cc1)C(=O)O)c1ccccc1 (stereo partly drawn) has what recorded IC50?
> 120 µM

What does the data say about its IC50? Entry: "CC(C)(COP(=O)(O)OP(=O)(O)OC[C@H]1O[C@@H](n2cnc3c(N)ncnc32)[C@H](O)[C@@H]1OP(=O)(O)O)[C@@H](O)C(=O)NCCC(=O)NCCSCCC(=O)c1ccc(Cl)cc1Cl"
> 400 µM
